Where do the numbers come from? From PubChem BioAssay (NCI).

- protocol: NCI Yeast Anticancer Drug Screen. Data for the bub3 strain (AID 167)
- experimental-context: S. cerevisiae bub3 mutant strain, at 50.0 µM (retest, dose inferred, filed as 5.0), hits give high values
- Description: Growth inhibition of yeast strains with defined genetic alterations is measured as a screen for potential anti-cancer activity. Selected strains with alterations in DNA damage repair or cell cycle control were exposed to compounds and growth inhibition was measured relative to vehicle treated controls. The strain used in this assay is bub3
The panel holds about 79,000 compounds, 15% with a hit somewhere; the sample as a whole holds those more often.
readout-name: growth inhibition (%)
Report only the number, with the unit % understood.

# example entries with known answers
compound: c1cc(C2=NCCN2)ccc1Nc1ccc(-c2cc3ccc(C4=NCCN4)cc3[nH]2)cc1
unit-abbreviation: %
growth inhibition: 99

compound: C/C(=N\NC(=S)N1CCN(c2ccccn2)CC1)c1ccccn1
unit-abbreviation: %
growth inhibition: 100

compound: O=C(Nc1ccc(S(=O)(=O)NC2CCCCC2)cc1)OC1CCCCC1
unit-abbreviation: %
growth inhibition: 95

compound: N#CCC1CC(=O)c2[nH]c3ccccc3c2C1 (centres undefined)
unit-abbreviation: %
growth inhibition: -70

compound: COC(=O)[C@@]12OC[C@]34[C@H]([C@@H](O)[C@@H]1O)[C@@]1(C)[C@H](O)C(=O)C=C(C)[C@@H]1C[C@H]3OC(=O)C(OC(C)=O)[C@@H]24 (some centres undefined)
unit-abbreviation: %
growth inhibition: 98

Summary for this compound, CN(C)c1ccc(C(=C2C=CC(=[N+](C)C)C=C2)c2ccc(N(C)C)cc2)cc1 (tested in a mixture with another compound) : growth inhibition is 93

Summary for this compound, CC[N+]1(C)CCC(O)(/C=C/c2ccccc2)C(C(=O)/C=C/c2ccccc2)C1 (centres undefined) : growth inhibition is 99

Summary for this compound, C[N+]12CC3C4CC(C3C1)C2C4 (centres undefined) : growth inhibition is -12

Summary for this compound, `CCOc1c(N=Nc2ccccc2OC)c(C)nn1C(N)=S` : growth inhibition is 14

###

- protocol: NCI Yeast Anticancer Drug Screen. Data for the mlh1 rad18 strain (AID 175)
- experimental-context: S. cerevisiae mlh1 rad18 strain growth inhibition; at 50.0 µM (retest, dose inferred, filed as 5.0)
Compounds without any hit were thinned out: in the full panel of roughly 79,000, 15% have a hit. Activity calls are given as the source filed them. No stated cut-off is given here; in the data, active means growth inhibition above about 70%; inactive means the rest.
Select the correct class. Options are active, inactive and nothing else.

Completed entries (count: 8):
compound: CC(=O)Nc1nnc(C)s1
class-name: inactive
//
compound: COC1CCC(O)C(CO)O1 (stereo not drawn)
class-name: active
//
compound: CC(C)C(=O)OCC(C)(C)C1OCC(C)(C)C(C(C)C)O1 (stereo not drawn)
class-name: inactive
//
compound: CCOC(=O)c1c(Cl)c(CC)c(N=[N+]=[N-])n2c1nc1ccccc12
class-name: active
//
compound: CC1CCN(CCC(=O)c2cccc(O)c2)CC1
class-name: active
//
compound: CC(C)N=C1NS(=O)(=O)c2ccccc21
class-name: inactive
//
compound: CCCCCCCCCCCCCCCCC1CCc2ccccc21 (stereo not drawn)
class-name: inactive
//
compound: CCC[CH2][Sn]([CH2]CCC)([S]/C(C#N)=N/N=C/c1ccc(N(C)C)cc1)[S]/C(C#N)=N/N=C/c1ccc(N(C)C)cc1
class-name: active

Assay outcome for `COc1nc(Nc2ccc(/C=C/c3ccc(Nc4nc(OC)nc(N(CCO)CCO)n4)cc3S(=O)(=O)O)c(S(=O)(=O)O)c2)nc(N(CCO)CCO)n1` : what was it?
inactive

Assay outcome for `Oc1ccc(CNCc2ccccc2)c2cccnc12` : what was it?
active

Assay outcome for `CC(=O)OCC(=O)[C@@]1(O)[C@H](C)C[C@H]2[C@@H]3C=C(C)C4=Cc5c(cnn5-c5ccccc5)C[C@]4(C)[C@@]3(F)[C@@H](O)C[C@@]21C` : what was it?
active

Assay outcome for COC1/C=C/OC2(C)Oc3c(C)c(OC(C)=O)c4c(c3C2=O)C(=O)C=C(NC(=O)/C(C)=C\C=C\C(C)C(O)C(C)C(O)C(C)C(OC(C)=O)C1C)C4=O (stereo not drawn) : what was it?
active

Assay outcome for `Nc1c(/C=C/c2cc3cc(C4=NCCN4)ccc3o2)[nH]c2cc(C3=NCCN3)ccc12` : what was it?
active

###

- protocol: NCI Yeast Anticancer Drug Screen. Data for the mlh1 rad18 strain (AID 175)
- experimental-context: S. cerevisiae mlh1 rad18 strain growth inhibition; at 50.0 µM; hits give high values
The panel holds about 79,000 compounds, 15% with a hit somewhere; the sample as a whole holds those more often.
readout-name: growth inhibition (%)
Report only the number, with the unit % understood.

compound: CCCCCCCCCCCCCCCC[N+](C)(CCO)Cc1cnc[nH]1 (stereo not given)
value-observed: 88.6
--
compound: C/C(=N/Nc1ccc([N+](=O)[O-])cc1[N+](=O)[O-])C1=CCC(C(C)(C)C)CC1 (stereo not given)
value-observed: 11.8
--
compound: O=C1CCCc2cc3c(nc21)C(=O)CCC3
value-observed: 2.5
--
compound: Cn1c2ccccc2c2c(C#N)c(C#N)c([N+](=O)[O-])cc21
value-observed: 76.8
--
compound: CCC(c1cccc(O)c1)C(CC)c1cccc(O)c1 (stereo not given)
value-observed: 92.8

Summary for this compound, CC(=O)OCC1OC(OC(C)=O)C(On2nnc3c(-c4ccccc4)c(C)nn32)C(OC(C)=O)C1OC(C)=O (stereo not given) : growth inhibition is 36.2

Summary for this compound, CCOC(=O)C1SC(=Nc2ccc(Cl)cc2)N=C1C (stereo not given) : growth inhibition is 89.6

Summary for this compound, CC1(C(Cl)(Cl)Cl)C=CC(O)(C#CC2(O)C=CC(C)(C(Cl)(Cl)Cl)C=C2)C=C1 (stereo not given) : growth inhibition is 97.8

Summary for this compound, `c1cc[c]([Sn]([NH]c2ncnc3[nH]cnc23)([NH]c2ncnc3[nH]cnc23)[c]2ccccc2)cc1` : growth inhibition is 89.2

Summary for this compound, `Cc1cc2cc3c(c(C(=O)O)c2o1)C(=O)c1ccc2ccccc2c1C3` : growth inhibition is 99.4

###

- protocol: NCI Yeast Anticancer Drug Screen. Data for the rad50 strain (AID 155);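 further: 0% = growth of vehicle-only cultures of the same strain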
- experimental-context: S. cerevisiae rad50 strain growth inhibition; at 50.0 µM (retest, dose inferred, filed as 5.0); hits give high values
This is part of a sample that, as a whole, favours compounds with a hit. Of some 79,000 tested, about 15% had one in any assay.
readout-name: growth inhibition (%)
Report only the number, with the unit % understood.

# example entries with known answers
compound: CSC(=S)NNC(C)c1nccc2ccccc12 (stereo unspecified)
readout-name: growth inhibition
unit-abbreviation: %
value-observed: 97
//
compound: O=C1C=CC(=O)N1C1CCCCC1
readout-name: growth inhibition
unit-abbreviation: %
value-observed: 99
//
compound: Cc1[nH]c2ccccc2c1C(c1ccccc1)c1c(C)[nH]c2ccccc12
readout-name: growth inhibition
unit-abbreviation: %
value-observed: 92
//
compound: COc1ccc(CN(C)c2c(C)ccc3ccccc23)cc1
readout-name: growth inhibition
unit-abbreviation: %
value-observed: 85
//
compound: O=C(CCN1CCCCC1)/C(=C\c1ccc(Cl)cc1)c1ccccc1
readout-name: growth inhibition
unit-abbreviation: %
value-observed: 95
//
compound: CCOc1ccc2c(c1)[n+]([O-])c(-c1ccc(Cl)cc1)c(N)[n+]2[O-]
readout-name: growth inhibition
unit-abbreviation: %
value-observed: 99
//
compound: Cc1nc(N)sc1N=Nc1cccc(Cl)c1Cl
readout-name: growth inhibition
unit-abbreviation: %
value-observed: 39
//
compound: N#Cc1snc2sc(=O)sc12
readout-name: growth inhibition
unit-abbreviation: %
value-observed: 100
//
compound: O=C(O)C1CC2C3(Cl)C(Cl)=C(Cl)C(Cl)C2(CC1c1c2ccc(=O)c(O)c-2oc2c(O)c(O)ccc12)C3(Cl)Cl (stereo unspecified)
readout-name: growth inhibition
unit-abbreviation: %
value-observed: 96
//
compound: Cc1c(C2CC(=O)NC2=O)c2ccccc2n1C (stereo unspecified)
readout-name: growth inhibition
unit-abbreviation: %
value-observed: 3

Summary for this compound, `O/N=C(/C[n+]1csc2ccccc21)c1ccccc1` : growth inhibition is 82

Summary for this compound, CN(C)c1ccc(C(c2cc3c(cc2O)OCO3)N2CCCCC2)cc1 (stereo unspecified) : growth inhibition is 86

Summary for this compound, `CC(=O)c1c(CO[N+](=O)[O-])n([O-])c2ccccc2[n+]1=O` : growth inhibition is 60

Summary for this compound, `O=C(Nc1ccccc1)Oc1c(Cl)c(Cl)c(Cl)c(Cl)c1Cl` : growth inhibition is 98

Summary for this compound, `Cn1cc(/C=C/[N+](=O)[O-])c2ccc(OCc3ccccc3)cc21` : growth inhibition is -6

Summary for this compound, `CCN(CC)CCCNc1ncc(C)c2c1c1ccc3c(O)cccc3c1n2C` : growth inhibition is 62

###

- protocol: NCI Yeast Anticancer Drug Screen. Data for the sgs1 mgt1 strain (AID 161);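 further: 0% = growth of cultures given vehicle only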
- experimental-context: S. cerevisiae sgs1 mgt1 strain, at 50.0 µM
About 79,000 compounds went through this panel and 15% of them were active in at least one assay; those are over-represented in the sample as a whole. Activity calls are given as the source filed them. No stated cut-off is given here; in the data, active means growth inhibition above about 70%; inactive means the rest.
Select the correct class. Options are 1.0 for active, 0.0 for inactive and nothing else.

compound: CN(C)CC1CC/C(=C\c2ccc(O)cc2)C1=O (configuration not stated)
class-name: 1.0
--
compound: N=C(N)c1ccc(N=Nc2cc(/C=C/c3ccccc3)ccc2O)cc1
class-name: 1.0

Assay outcome for CC(SCc1ccccc1)C(=O)O (configuration not stated) : what was it?
0.0

Assay outcome for `CCOC(=O)c1[nH]n(-c2ccccc2)c(=O)c1/C=N/C(=S)Nc1ccccc1OC` : what was it?
0.0

Assay outcome for CCC1OC(OC)C=CC1=O (configuration not stated) : what was it?
1.0

Assay outcome for Cc1ccc2c(c1)CC1(C2)Cc2ccc(C)cc2C1=O (configuration not stated) : what was it?
0.0

Assay outcome for `O=CNNC(=O)Nc1ccc(Cl)cc1` : what was it?
0.0

Assay outcome for `COc1ccc(-n2c(=O)c3[nH]c(=S)[nH]c3n(-c3ccc(OC)cc3)c2=S)cc1` : what was it?
0.0

Assay outcome for COC(=O)C([NH-])c1ccccc1.COC(=O)C([NH-])c1ccccc1.[Cl][Pt+2][Cl] (configuration not stated) : what was it?
1.0

Assay outcome for COc1ccc(/C=C2\CCC(CN(C)C)C2=O)cc1 (configuration not stated) : what was it?
1.0

Assay outcome for Nc1ccccc1OCC(O)CN1CCN(Cc2ccccc2)CC1 (configuration not stated) : what was it?
1.0

Assay outcome for `CN(C)COC(=S)SCN(C)C` : what was it?
0.0

Assay outcome for CC[N+]1(C)CCC(O)(/C=C/c2ccccc2)C(C(=O)/C=C/c2ccccc2)C1 (configuration not stated) : what was it?
1.0

Assay outcome for `Oc1ccc(-c2ccccc2)cc1Br` : what was it?
1.0

Assay outcome for `Cc1nc(-n2nc(-c3ccccc3)cc2-c2ccccc2)sc1C(/C=C\c1ccc([N+](=O)[O-])cc1)=N/NC(=S)NN` : what was it?
1.0

Assay outcome for `COc1ccc(CN=C(N)N)c2ccccc12` : what was it?
0.0

Assay outcome for CC(=O)Oc1cc2c(cc1OC(C)=O)OCC(c1ccccc1)C2 (configuration not stated) : what was it?
1.0

Assay outcome for COc1cccc(N2C(=O)C3CC(CC(C)(C)C)c4c([nH]c5ccccc45)C3C2=O)c1 (configuration not stated) : what was it?
0.0

Assay outcome for `CCCC(=O)Oc1ccc(-c2ccccc2Br)cc1` : what was it?
1.0
